The measured values listed here are drawn from patent US20230295310A1.

# MEASUREMENT_TARGET: T1, human CD3 expressed on cells (human, UniProt P07766 23-207; P04234 22-171; P09693 23-182)
# T1 construct: whole, on cells; CD3 complex on Jurkat cells and on human primary T cells
# T1 sequence (P07766 23-207, chain 1 of 3): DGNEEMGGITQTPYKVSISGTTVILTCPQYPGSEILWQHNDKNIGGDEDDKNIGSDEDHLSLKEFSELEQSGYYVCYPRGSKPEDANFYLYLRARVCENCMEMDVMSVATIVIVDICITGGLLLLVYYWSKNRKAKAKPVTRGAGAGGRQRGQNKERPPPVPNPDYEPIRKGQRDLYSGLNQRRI
# T1 sequence (P04234 22-171, chain 2 of 3): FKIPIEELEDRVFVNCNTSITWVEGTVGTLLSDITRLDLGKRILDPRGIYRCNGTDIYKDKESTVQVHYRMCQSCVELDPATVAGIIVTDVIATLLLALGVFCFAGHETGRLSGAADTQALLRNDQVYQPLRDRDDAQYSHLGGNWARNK
# T1 sequence (P09693 23-182, chain 3 of 3): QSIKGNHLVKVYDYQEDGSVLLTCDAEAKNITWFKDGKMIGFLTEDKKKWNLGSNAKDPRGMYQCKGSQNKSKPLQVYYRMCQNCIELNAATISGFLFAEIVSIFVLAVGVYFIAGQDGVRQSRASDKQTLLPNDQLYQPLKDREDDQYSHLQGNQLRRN
# ASSAY_COMMENT: flow cytometry, 25 nM
# Method: Purified antibodies were confirmed to bind CD3 expressed on cells using the CytoFLEX S or LX flow cytometers (Beckman Coulter). Antibodies were diluted to 25 nM in FACS buffer (PBS+2% FBS) and were incubated with CD3-expressing cells for 30 minutes at 4° C. […] The median fluorescence intensity of the binding signal for each antibody was normalized to the isotype control to obtain a fold over isotype value. An antibody with a fold over isotype (FOI) of ≥10 was considered to be positive for binding.
MEASUREMENT_LABEL: Human primary T Cell Binding (FOI)
Report the figure in FOI without appending any unit label.

Example results:
mAb 79 (antibody, V domains shown) VH: QVQLVQSGAEVKKPGASVKVSCKASGYIVTGYYMHWVRQAPGHGLEWMGWINPNSGGTNFAQNFQGRVTMTRDTSISTFYMDLNRLTSDDTAVYYCARGGAPVSYWFFDLWGRGTLVTVSS VL: DIQMTQSPSSLSASVGDRVTITCRASQNINSYLNWYHQKPGKAPKVLIYNTSTLKSGVPSRFSGSGSGTYFTLTISSLQPEDFATFYCQQSHSTPFTFGPGTKVDIK    199
mAb 116 (antibody, V domains shown) VH: EVQLVESGGGLVKTGGSLRLSCVASGFSFKKAWMNWVRQAPGKGLEWVGRIKRNSDGGTTDYAAPVKGRFTLSRDDSKNTLYLQMNSLKTEDTAVYYCTTLDSSSWYVGYYYMDVWGKGTTVTVSS VL: DIQMTQSPFSVSASVGDRVTITCRASQDINNWLAWYQQKPGKAPKILIYTASSLQSGVPSRFSGSGSGTDFTLTISSLQPEDFATYYCQQAHSLPITFGQGTRLEIK    174

// moving on: another record for Human primary T Cell Binding (FOI)
Just so you know, measured Human primary T Cell Binding (FOI) for mAb 112 (antibody, V domains shown) VH: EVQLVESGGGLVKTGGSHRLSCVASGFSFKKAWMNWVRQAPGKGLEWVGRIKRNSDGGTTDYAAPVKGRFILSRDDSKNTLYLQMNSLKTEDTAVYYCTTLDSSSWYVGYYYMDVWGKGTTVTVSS VL: DIQMTQSPSSVSASVGDRVTITCRASQDINNWLAWYQQKPGKAPKILIYTASNLQSGVPSRFSGSGSGTDFTLTISSLQPEDFATYFCQQAHSLPITFGQGTRLEIK came out at 174
